Recorded Tm, one value per entry.
Method Description: melting temperature; fluorescence melt of hairpins on a sequencing array, two-state fit, raised by 9.35 °C to match UV melts
Condition Notes: sodium 0.088 M

Sequence Code	Tm [°C]
GAGTTCCCGAAAGGGCTC (((..(((....))))))	34.1
GCCTTCGAAAGAATGGC ((((((....))).)))	49
GAGAGCGAAAGCTCCTC ((((((....))).)))	49
GATTGAGCGAAAGCTATC (((..(((....))))))	30.7
GATAGGGGAAACCCTGTC ((.((((....)))).))	43.7
GGTTCAGAAATGAACC ((((((....))))))	54.6
GATCTATTAGTAGATC ((((((....))))))	44.4
GGGATTCGAAAGAAGCCC (((.(((....))).)))	63.5
GTGAAGGGAAACCTTTGC (..((((....))))..)	31.7
GAGAACGAAAGTTATCTC ((((((....)))..)))	43
GATCCAACGGTGGATC ((((((....))))))	49
GTGATCGAAAGATTTCAC ((((((....)))..)))	27.6
GATCGGCTGGCCGATC ((((((....))))))	68.3
GTACCAGGAAACTGGTGC (.(((((....))))).)	51.4
GATCCGTTGACGGATC ((((((....))))))	61.8
GCCGTACGAAAGTAAGGC (((.(((....))).)))	60.1
GCTGTTCGAAAGAAAAGC (((.(((....))).)))	46.5
GGACTCGGAAACGAATCC (((.(((....))).)))	40.9
GATCATTAGGATGATC ((((((....))))))	47.8
AATTCGAAAGAATT (((((....)))))	43.3
GTAGACGAAAGTCTGTAC ((((((....)))..)))	36.8
GGCCTCGGAAACGGGGCC ((((.((....)).))))	66.6
GCGCCCGAAAGGGCCGC ((((((....))).)))	68
GCTCTGCGAAAGCGTAGC (((..((....))..)))	38.2
GTCACCGAAAGGTGCGAC ((((((....)))..)))	58.5

###

Method Description: folding enthalpy; higher = less favourable; fluorescence melt of hairpins on a sequencing array, two-state fit
Condition Notes: sodium 0.088 M
The entries below come with measured folding enthalpy values attached.
Endpoint Name: folding enthalpy

Sequence Code	Result
GCAGTGCCGAAAGGCTGC (((..(((....))))))	-14.8 kcal/mol
GATCATTATAATGATC ((((((....))))))	-33.1 kcal/mol
GTGTACGAAAGTAACAC ((((((....))).)))	-30 kcal/mol
GATTGCGGAAACGCAATC (((((((....)))))))	-37.8 kcal/mol
GTTCAGGGAAACTTGAGC (.(((.(....).))).)	-18.4 kcal/mol
GAGGGCCGAAAGGCCTC (((.(((....))))))	-9.74 kcal/mol
GATCGTGCCAACGATC ((((((....))))))	-29.7 kcal/mol
GCGGAAGGAAACTCCCGC ((((.((....)).))))	-36.2 kcal/mol
GAGGTCGGAAACGACCCC (.(((((....))))).)	-9.23 kcal/mol
GGAAGATCGAAAGATTCC (((..(((....))))))	-13.4 kcal/mol
GGTCACCCGAAAGGGACC (((..(((....))))))	-17.7 kcal/mol
GGTGAGGGAAACCTCACC (((((((....)))))))	-43.2 kcal/mol

Data provenance: the array DNA melting data of Ke et al. (doi:10.1101/2024.01.08.574731)
